Entry source: paper PMC9092470

measuredOn: GST-p300 (p300 CH1 domain, residues 330–420) (Homo sapiens)
Sequence (Q09472 330-420): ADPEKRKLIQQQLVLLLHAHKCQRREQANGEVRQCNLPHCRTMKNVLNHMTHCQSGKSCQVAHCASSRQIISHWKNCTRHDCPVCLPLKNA
testName: Fluorescence anisotropy direct titration of GFP-HIF-1α776–826 variants with GST-p300
Type: binding
assaySetup: 50 nM GFP-HIF-1α776–826 variant, GST-p300 serial dilution, 25 mM Tris–HCl, 150 mM NaCl, 1 mM DTT, pH 7.4, 27 °C, 1:1 model, ± standard error of fitted value, technical triplicates
No end group written: not given here.
property: pKd
// returns pKd (minus log10 of molar concentration), number only

-- ask Look up pKd: L818A L822A V825A: GFP-HIF-1α776–826 C-TAD multiple alanine variant ({GFP}-SDLACRLLGQSMDESGLPQLTSYDCEVNAPIQGSRNLLQGEEALRAADQAN; cysteine pairing not given here)
-- reply 7.27

-- ask Sample E801A: GFP-HIF-1α776–826 C-TAD single alanine variant E801A ({GFP}-SDLACRLLGQSMDESGLPQLTSYDCAVNAPIQGSRNLLQGEELLRALDQVN; cysteine pairing not given here) — what was its pKd?
-- reply 6.64
